Listed below: log10(IC50) values for each entry.
Test system: HCV replicon 1AY93H
Assay: Cell-based HCV Replicon Assay A, replicon 1AY93H
Conditions: read-out: 1A Y93H IC50, replicon 1AY93H
Lab note - IC50 converted to log10 from values in nM.

Guide cases for log10(IC50), answers given:
COC(=O)N[C@H](C(=O)N1CCC[C@H]1c1ncc(-c2cc(F)c3c(c2)OC(c2cscn2)n2c-3cc3cc(-c4cnc([C@@H]5CCCN5C(=O)[C@@H](NC(=O)OC)C(C)C)[nH]4)ccc32)[nH]1)C(C)C (single isomer, unassigned) [Compound 430] :: 1.29
COC(=O)N[C@H](C(=O)N1CCC[C@H]1c1ncc(-c2cc(F)c3c(c2)OC(c2cscn2)n2c-3cc3cc(-c4cnc([C@@H]5CCCN5C(=O)[C@@H](NC(=O)OC)C(C)C)[nH]4)ccc32)[nH]1)C(C)C (single isomer, unassigned) [Compound 431] :: -0.25
COC(=O)NC(C(=O)N1[C@@H]2C[C@@H]2C[C@H]1c1ncc(-c2ccc3c(c2)cc2n3C(c3cnc(C(C)(C)C)s3)Oc3cc(-c4cnc([C@@H]5CCCN5C(=O)[C@@H](NC(=O)OC)C(C)C)[nH]4)cc(F)c3-2)[nH]1)C(C)C (single isomer, unassigned) [Compound 324] :: -0.58

Please examine the following record next.
q: # returns recorded log10(IC50) (system: HCV replicon 1AY93H) for COC(=O)N[C@H](C(=O)N1CCC[C@H]1c1ncc(-c2cc(C)c3c(c2)OC(c2ncc(C4CC4)s2)n2c-3cc3cc(-c4cnc([C@@H]5CCCN5C(=O)[C@@H](NC(=O)OC)C5C[C@@H](C)O[C@@H](C)C5)[nH]4)ccc32)[nH]1)C(C)C (single isomer, unassigned) [Compound 47]
a: 0.05
